Test system: LoVo
Assay remarks: Cytotoxicity against LoVo (human intestinal adenocarcinoma) cell line at 6.5 joule/cm**2 UVA dose
Type: functional, cell-based
Protocol conditions: light or radiation study
pIC50: −log10 of the molar value.
Criterion: pIC50 meeting or surpassing 6. Met: T. Not met: F.

| Compound | Classification |
| --- | --- |
| COc1c2occc2cc2ccc(=O)oc12 [METHOXSALEN] | T |
| Cc1cc2c(n1-c1ccccc1)CCc1ccc(=O)sc1-2 | F |
| Cc1cc2c(n1Cc1ccccc1)CCc1ccc(=O)sc1-2 | F |
| Cc1cc2c3sc(=O)ccc3ccc2n1-c1ccccc1 | F |
| Cc1cc2c3sc(=O)ccc3ccc2n1C | T |

These data points were gathered from ChEMBL document CHEMBL1141923.
